We begin with a simple list: items and their reported melting point.
experimentalEndpoint: melting point

INSERT INTO results (compound, value) VALUES
  ('COc1cc2c(cc1OC)-c1ncc(C(N)=O)c(=O)n1CC2', '313 to 315 °C'),
  ('CCn1c(=O)c2nc(C=O)cn2c2ccccc21', '302 to 306 °C'),
  ('Cn1cc(S(=O)(=O)NC(C)(C)C)cc1C=O', '97 to 98 °C'),
  ('CN1CCC(NNC(=O)c2ccccc2)CC1', '149 to 150 °C'),
  ('CCOC(=O)CC(=O)C=Cc1ccc([N+](=O)[O-])cc1', '116 °C'),
  ('NS(=O)(=O)c1ncccc1-c1ccccc1', '172 °C'),
  ('CC(=O)OCC1CCn2c(c(C3=C(c4cn(C)c5ccccc45)C(=O)OC3=O)c3ccccc32)C1 (configuration not stated)', '174 to 178 °C'),
  ('N#Cc1cnn2c(-c3cccc([N+](=O)[O-])c3)ccnc12', '244 to 246 °C'),
  ('Nc1cccc(C(F)(F)C(F)(F)C(F)(F)C(F)(F)C(F)(F)C(F)(F)C(F)(F)C(F)(F)F)c1', '35.5 to 36 °C'),
  ('CS(=O)(=O)c1ccc(-c2ncccc2C(=O)c2cccc(F)c2)cc1', '157 to 159 °C'),
  ('OCC12CC3CC(CC(C3)C1Br)C2 (configuration not stated)', '138 °C'),
  ('COC(C)(OC)c1ccc(C2(O)CCC(C)(C)CC2)cc1', '88 °C'),
  ('COc1ccc(CN(OC)C(=O)C2=C(O)C(=O)N(C)C2)cc1', '135 to 137 °C'),
  ('CCCCc1oc2ccccc2c1-c1ncc(-c2ccc3cc(OC(Cc4ccccc4)C(=O)O)ccc3c2)o1 (configuration not stated)', '174 to 177 °C'),
  ('CSCC(C)C(=O)N(C)c1sc(-c2cccnc2)nc1Cl (configuration not stated)', '70 to 73 °C'),
  ('CN(C)C=C(C=O)c1ccccc1Cl', '86.5 to 88.5 °C'),
  ('Cc1ccc(-c2ccc3c(c2)C=C(C(=O)Nc2ccc(-c4cccnc4)cc2)CCO3)cc1', '214 to 216 °C'),
  ('CON(c1ccc([N+](=O)[O-])cc1[N+](=O)[O-])S(=O)(=O)c1cccc(Cl)c1', '157 to 159 °C'),
  ('O=C1c2ccc(Cl)cc2OCc2cccnc21', '100 to 102 °C'),
  ('O=C1c2cc3nnn(CCc4cccc(F)c4)c(=O)c3cc2OC2OCCN12 (configuration not stated)', '191 to 193 °C'),
  ('CCN(CC)C(=O)CCc1ccc(O)c(N)c1', '92 to 93 °C'),
  ('CSc1c(C(C)C(=O)O)n(Cc2ccc(Cl)cc2)c2ccc(F)cc12 (configuration not stated)', '136 to 140 °C'),
  ('O=c1[nH]c(N2CCCC(CO)C2)cc2ccccc12 (configuration not stated)', '143 to 144 °C'),
  ('Cn1cc(-c2ccc(F)cc2)c(C(=O)O)n1', '146 to 147 °C'),
  ('O=C(OCCCI)C(=C1NCCCS1)[N+](=O)[O-]', '58 to 60 °C'),
  ('O=C(NNS(=O)(=O)c1ccccc1)c1ccccc1CCc1ccccc1', '158 to 159 °C'),
  ('Cc1nc2ccccc2n1-c1ccc(C(=O)O)cc1', '299 to 300 °C'),
  ('Fc1cc2c(c3cccnc13)OC(CN1CC=C(c3c[nH]c4ccccc34)CC1)CO2 (configuration not stated)', '215 °C'),
  ('Cc1ccnc(-c2cc(CO)ccn2)c1', '110 to 112 °C'),
  ('c1ccc(CN2CCOC(c3ccccc3)(c3ccccc3)CC2)cc1', '72 to 75 °C'),
  ('CCc1noc(-c2cn(-c3ccc4c(c3)OCO4)cn2)n1', '173 to 174 °C'),
  ('CC(C)(C)OC(=O)N1CC(CC(=O)O)c2ccccc21 (single isomer, unassigned; (+))', '137 to 138 °C'),
  ('O=C(Nc1cccnc1)N1CCN(c2cc(-c3ccccc3F)ncn2)CC1', '178 to 179 °C'),
  ('COC(=O)c1nc(C)c(F)c(N)c1Cl', '113 to 114 °C'),
  ('Cc1cccc(NC(=O)NCC(=O)N(CC(=O)O)c2ccccc2)c1', '188 °C'),
  ('COc1ccc(OC)c(CCc2ccc3ncnc(N)c3c2)c1', '160 to 165 °C'),
  ('COc1cc2c(c3c1OC(C)(C)C3)C(c1ccc(=O)n(C)c1)=NC(C)(C)C2', '158 to 159 °C'),
  ('COC(=O)CSc1ccc2ccc(Oc3c(Cl)cc(C(F)(F)F)cc3OC)cc2c1', '115 °C'),
  ('CCOP(=S)(CNSCNC(=O)ON=C(C)SC)OCC', '72 to 73 °C'),
  ('CCOC(=O)c1cc2c(cn1)[nH]c1ccc(N)c(N3CCCCC3)c12', '188 to 190 °C'),
  ('CCCCCCCCCCS(=O)(=O)NC(=O)c1cnc(C(=O)NCC(=O)OCC)c(OC)c1', '70 °C'),
  ('CSC(=S)N1CCN(Cc2ccccc2N)CC1', '110 to 114 °C');

* * *

experimentalEndpoint: melting point

INSERT INTO results (compound, value) VALUES
  ('Nc1c(Cl)cc2nc(O)c(O)nc2c1[N+](=O)[O-]', '> 300 °C'),
  ('N#Cc1cc(Cc2ccccc2)ccc1N', '68 to 69 °C'),
  ('CCN(CC)[C@@H]1C(=O)N(C)[C@H]1c1ccccc1 (relative stereo)', '70 to 71 °C'),
  ('O=C(c1cccc(F)c1)N1CC2CC2(c2ccc(Cl)cc2)C1 (stereo not given)', '70 to 73 °C'),
  ('CC(=O)ON=Cc1cccc2c1C=Cc1ccccc1S2', '144 to 145 °C'),
  ('CCOC(=O)c1ccc(C(=O)NS(=O)(=O)c2ccc(CCNC(C)=O)cc2)cn1', '245 °C'),
  ('N#CCc1cccc(C(=O)c2ccc(Cl)cc2)c1N', '181 to 182 °C'),
  ('CN1CCc2c(c3ccccc3n2CCc2n[nH]c(=S)n2C)C1', '216 to 219 °C'),
  ('COc1ccc(C(O)(CC(=O)N2CCOCC2)c2ccc(Cl)cc2)cc1OC (stereo not given)', '150 °C'),
  ('O=S1(=O)NCN(CCF)c2cc(Cl)c(Cl)cc21', '156 to 157 °C'),
  ('CC(C)N1CCc2ccc(NC(=N)c3cccs3)cc2C1', '110 to 111 °C'),
  ('C[C@@H]1C(=O)C[C@H]2C[C@@H]1OO[C@@]2(C)/C=C\c1cccc(C(F)(F)F)c1', '101 °C'),
  ('CC1(n2cccc2)CN(c2c(F)cc3c(=O)c(C(=O)O)cn(C4CC4)c3c2F)C1', '249 to 252 °C'),
  ('O=C(NC1c2cc(NC(=O)N3CCCC3)ccc2CCC1O)c1ccc(Cl)c(Cl)c1 (stereo not given)', '206 to 208 °C'),
  ('COc1ncccc1NC(=O)C1(O)CCCn2c1nc(-c1ccncn1)cc2=O (racemic)', '208 to 210 °C'),
  ('CN(C)C1(c2ccccc2)CCC(=CC(=O)N2CCC(c3c[nH]c4ccccc34)C2)CC1 (stereo not given)', '94 to 97 °C'),
  ('Cc1c(NC(=O)CC(CSC(=O)[C@@H](C)NC(=O)C2CCCCC2)c2ccccc2)cccc1C(=O)O (stereo not given in full)', '175 to 180 °C'),
  ('O=C(O)C1=Cc2cc(-c3ccc(Cl)s3)ccc2OC1C(F)(F)F (stereo not given)', '205 to 206 °C'),
  ('COC1CN(C(=O)Nc2ccc(C(F)(F)F)cc2)N=C1c1ccc(Cl)cc1 (stereo not given)', '185 to 186 °C'),
  ('COc1ccc2c(c1)C(O)(c1ccccn1)CC(C)(C)CO2 (stereo not given)', '98 °C');

* * *

Listed compounds paired with reported melting point
experimentalEndpoint: melting point

INSERT INTO measurements (compound, experimentalendpoint, value) VALUES
  ('Cc1nc2[nH]c(=O)ccc2c(C)c1C', 'melting point', '170 to 175 °C'),
  ('CCn1c(=O)[nH]c2c3ccccc3ccc21', 'melting point', '240 to 242 °C'),
  ('O=C1Nc2ccc(C(F)(F)F)cc2C1c1nc(Cl)nc2nn(C3CCCC3)cc12 (configuration not stated)', 'melting point', '> 300 °C'),
  ('Cc1ccnc2c1N=C(N)c1cccnc1N2C1CC1', 'melting point', '242 to 244 °C'),
  ('CCSc1cn(C(C)C(=O)N(C)C)nc1-c1ccccc1 (configuration not stated)', 'melting point', '70 to 72 °C'),
  ('CC(C)(C)OC(=O)N1OC2C=CC1C2 (configuration not stated)', 'melting point', '52 to 53 °C'),
  ('CC1(C)Oc2ccc(C#N)cc2[C@@H](NC2=C(C=O)C(=O)CC2)[C@@H]1O (relative stereo)', 'melting point', '255 to 258 °C'),
  ('O=C(O)C=Cc1cccc2nnsc12', 'melting point', '199 to 202 °C'),
  ('COc1ccc(S(N)(=O)=O)cc1C(N)=O', 'melting point', '178 °C'),
  ('CC(C)(C)CC(C)(C)Nc1nc(Cl)nc(N2CC3CCC(CC3)C2)n1', 'melting point', '159 to 162 °C'),
  ('Cc1oc(-c2ccc3ccccc3c2)nc1/C=C/c1ccc(C=O)cc1', 'melting point', '162 to 163 °C'),
  ('CCNC(=O)c1cccs1', 'melting point', '75 to 78 °C'),
  ('Cc1[nH]c(=O)[nH]c1C(=O)c1ccccc1', 'melting point', '250 to 254 °C'),
  ('CC(C)CCCC(C)CCOc1cc(CCl)c(OCCC(C)CCCC(C)C)cc1CCl (configuration not stated)', 'melting point', '55 °C'),
  ('CC1=N/C(=C\c2c[nH]c3ncccc23)C(=O)N1C(C)C', 'melting point', '207 °C'),
  ('COC(=O)Nn1c(N)c(C#N)c(C)c1-c1ccccc1', 'melting point', '178 to 179 °C'),
  ('CN(C(=O)CN(C(=O)CNC(=O)Nc1cccc(Cc2nnn[nH]2)c1)c1ccccc1)c1ccccc1', 'melting point', '206 °C'),
  ('NC(=O)C1=NN(c2ccccc2)C(C(=O)O)=NN1c1ccccc1', 'melting point', '241 to 242 °C'),
  ('COc1cc(C(C)C)c(Oc2cnc(N)nc2N)cc1N1CCN(S(C)(=O)=O)CC1', 'melting point', '115 to 117 °C'),
  ('O=C(Nc1ccc(-n2nc(C(F)(F)F)cc2C(F)(F)F)cc1)c1ccc(F)cc1F', 'melting point', '126 to 128 °C'),
  ('CSc1ccc(C=O)cc1OC(C)C', 'melting point', '50 to 54 °C'),
  ('O=C(Oc1ccc(OC(=O)c2cc(O)c(O)c(O)c2)c(-c2ccccc2)c1)c1cc(O)c(O)c(O)c1', 'melting point', '114 to 116 °C'),
  ('CCOC(=O)N1CC[C@@H](O)[C@H](c2ccccc2)C1 (relative stereo)', 'melting point', '49.5 to 58 °C'),
  ('COC(=O)c1cc(OCc2nc(-c3ccccc3)sc2C)no1', 'melting point', '89 to 90 °C'),
  ('CCC(C(=O)c1ccc(Cl)cc1)n1ncn(-c2ccc(N3CCN(C(C)=O)CC3)cc2)c1=O (configuration not stated)', 'melting point', '125 °C'),
  ('COC(=O)c1ccc(C(=O)N(C)c2ccccc2)cc1', 'melting point', '78 to 80 °C'),
  ('COc1ccc(C2=NNC(=O)CS2)c(OC)c1', 'melting point', '162 to 164 °C'),
  ('CCCOc1cc(-c2cc3c(=O)[nH]c(C)nc3cc2C(C)C)ccc1Cl', 'melting point', '236 °C'),
  ('CC1Cc2cccc3c4oc(=O)c(Br)c(O)c4c(=O)n1c23 (configuration not stated)', 'melting point', '221 to 222 °C'),
  ('O=C(O)C(=CNc1ccc(O)c(=O)cc1)C(=O)O', 'melting point', '175 to 176 °C'),
  ('CS(=O)c1cc(=O)c2occc2s1 (configuration not stated)', 'melting point', '230 to 232 °C'),
  ('CC(=O)N1CCc2c(S(=O)(=O)Cl)ccc(Cl)c2C1', 'melting point', '105 to 115 °C'),
  ('O=C(Nc1ccccc1)Nc1ccc(-c2ccc(C(=O)N3CCN4CCC3CC4)o2)cc1', 'melting point', '125 to 130 °C'),
  ('O=C(C=Cc1ccccc1)N1CCc2c([nH]c3ccccc23)C1c1ccccc1 (configuration not stated)', 'melting point', '130 to 132 °C'),
  ('COc1ccc(C(=C/C=C/C(=O)Nc2ccc(-c3cccnc3)cc2)c2ccc(OC)cc2)cc1', 'melting point', '210 to 212 °C'),
  ('O=c1[nH]c2cccc(C3CCCNC3)c2[nH]1 (configuration not stated)', 'melting point', '260 °C'),
  ('Cc1c(C)c2c(c(C)c1Nc1ccccc1)CC(C)(C)O2', 'melting point', '148 to 150 °C'),
  ('N#Cc1nn(-c2c(Cl)cc(Cl)cc2Cl)cc1C1CC1(Br)Br (configuration not stated)', 'melting point', '164 °C'),
  ('O=P(O)(O)Cc1ccccc1-c1ccccc1', 'melting point', '168 to 169 °C'),
  ('Cc1n[nH]c(-c2ccc(Br)cc2)c1NC(=O)c1cccnc1', 'melting point', '262 to 264 °C'),
  ('COc1ccc(F)cc1C(=O)NC1COc2cc(OC)c(S(=O)(=O)NC(=S)NC(C)C)cc2C1 (configuration not stated)', 'melting point', '179 to 180 °C'),
  ('CC(C)c1cccc(C(C)C)c1NC(=O)NCC1(c2ccc(N(C)C)cc2)O[C@H](C)[C@@H](C)O1', 'melting point', '165 to 167 °C');
